test description: in vitro
assay setup: human
Each record here notes measured CC50.
outcome measure: CC50 (nM)

molecule: COc1ccc([C@@]23Oc4cc(OC)cc(OC)c4[C@]2(O)[C@H](O)[C@H](C(=O)N(C)C)[C@H]3c2ccccc2)cc1 [rocaglamide]
scale unit: nM
relation sign: >
value measured: 1000

molecule: C[C@@H]1O[C@@H](O[C@H]2C[C@@H](O)[C@]3(CO)[C@H]4[C@H](O)C[C@]5(C)[C@@H](C6=CC(=O)OC6)CC[C@]5(O)[C@@H]4CC[C@]3(O)C2)[C@H](O)[C@H](O)[C@H]1O [ouabain]
scale unit: nM
relation sign: =
value measured: 28.9

molecule: C[C@]12CC[C@H](O)C[C@H]1CC[C@@H]1[C@@H]2CC[C@]2(C)[C@@H](c3ccc(=O)oc3)CC[C@]12O [bufalin]
scale unit: nM
relation sign: =
value measured: 16.4

====

test description: in vitro
assay setup: grivet
Each record here notes measured CC50.

compound: COc1ccc([C@@]23Oc4cc(OC)cc(OC)c4[C@]2(O)[C@H](O)[C@H](C(=O)N(C)C)[C@H]3c2ccccc2)cc1 [rocaglamide]
CC50 / nM: 100

compound: C[C@]12CC[C@H](O)C[C@H]1CC[C@@H]1[C@@H]2CC[C@]2(C)[C@@H](c3ccc(=O)oc3)CC[C@]12O
CC50 / nM: 73.8

compound: C[C@@H]1O[C@@H](O[C@H]2C[C@@H](O)[C@]3(CO)[C@H]4[C@H](O)C[C@]5(C)[C@@H](C6=CC(=O)OC6)CC[C@]5(O)[C@@H]4CC[C@]3(O)C2)[C@H](O)[C@H](O)[C@H]1O
CC50 / nM: 70

// provenance: paper PMC5834214
